// reported CC50 at 96 h for each item listed
# test.protocol: Cytotoxicity against human MT4 cells after 4 days by cell viability assay
# Assay type: cell-based
# protocol.conditions: read-out: TC50
endpoint.label: CC50 at 96 h

>  <smiles.data>
C=C(C)[C@@H]1CC[C@]2(C(=O)NCc3ccc(C(=O)O)cn3)CC[C@]3(C)[C@H](CC[C@@H]4[C@@]5(C)CC[C@H](OC(=O)CC(C)(C)C(=O)O)C(C)(C)[C@@H]5CC[C@]43C)[C@@H]12

>  <endpoint.label>
CC50 at 96 h

>  <recorded.result>
> 10 µM

$$$$
>  <smiles.data>
C=C(C)[C@@H]1CC[C@]2(C(=O)NCCc3cccc(OC)c3)CC[C@]3(C)[C@H](CC[C@@H]4[C@@]5(C)CC[C@H](OC(=O)CC(C)(C)C(=O)O)C(C)(C)[C@@H]5CC[C@]43C)[C@@H]12

>  <endpoint.label>
CC50 at 96 h

>  <recorded.result>
> 10 µM

$$$$
>  <smiles.data>
C=C(C)[C@@H]1CC[C@]2(C(=O)NCc3ccccc3)CC[C@]3(C)[C@H](CC[C@@H]4[C@@]5(C)CC[C@H](OC(=O)CC(C)(C)C(=O)O)C(C)(C)[C@@H]5CC[C@]43C)[C@@H]12

>  <endpoint.label>
CC50 at 96 h

>  <recorded.result>
> 10 µM

$$$$
>  <smiles.data>
C=C(C)[C@@H]1CC[C@]2(C(=O)NCc3ccccc3C(=O)NCCNC(C)=O)CC[C@]3(C)[C@H](CC[C@@H]4[C@@]5(C)CC[C@H](OC(=O)CC(C)(C)C(=O)O)C(C)(C)[C@@H]5CC[C@]43C)[C@@H]12

>  <endpoint.label>
CC50 at 96 h

>  <recorded.result>
9.3 µM

$$$$
